Experiment: in vitro
Conditions: rat, gh3-tre-luc cells, AC50 (uM) modified / 1000
Structures can show the parent of a compound that is named as a salt.
Kindly supply the reported CC50 at 24 h values for the records listed here.

C=C[Si](OCCOC)(OCCOC)OCCOC	> 90 µM

// each compound listed below needs its CC50 at 24 h
1. CN1CCC(OC(c2ccccc2)c2ccccc2)CC1 [Diphenylpyraline hydrochloride]
2. CCC1(CO)COCOC1
3. Cc1ccsc1/C=C/C1=NCCCN1C [Morantel tartrate]
4. CCCCS(=O)(=O)Cl [Butane-1-sulfonyl chloride]
5. CCCC[N+](CCCC)(CCCC)CCCC [Tetrabutylammonium bromide]
6. O=C(Nc1ccc(Cl)c(Cl)c1)c1cc(Cl)cc(Cl)c1O [3,5-Dichlorosalicyl-3,4-dichloroanilide]

Result:
["> 20 µM", "> 90 µM", "> 20 µM", "> 90 µM", "> 90 µM", "2.97 µM"]

// each compound listed below needs its CC50 at 24 h
1. CO[C@@]1(NC(=O)[C@H](C(=O)O)c2ccc(O)cc2)C(=O)N2C(C(=O)O)=C(CSc3nnnn3C)CO[C@@H]21 [Moxalactam disodium]
2. Cc1onc(-c2c(Cl)cccc2Cl)c1C(=O)N[C@@H]1C(=O)N2[C@@H]1SC(C)(C)[C@@H]2C(=O)O [Dicloxacillin sodium salt monohydrate]
3. CC(C)C(=O)Nc1ccc([N+](=O)[O-])c(C(F)(F)F)c1 [Flutamide]

Result:
1. > 20 µM
2. > 50 µM
3. 88.9 µM

// each compound listed below needs its CC50 at 24 h
1. O=C(O)CNc1ccccc1 [Potassium anilinoacetate]
2. CCC(=O)OC(=O)CC [Propanoic anhydride]

Result:
["> 90 µM", "> 90 µM"]
